Tested on: IPC-81 rat AML cells
Test: Anti-AML activity, WST-1 viability (Example 72)
Format: cell-based
Conditions: IPC81, IPC-81 cells, 2% O2, 24 h of incubation, WST-1, read-out: IPC-81 IC50 2% O2
Quantity: IC50 (nM)
One number for each entry, in nM.

COc1cccc2c1[n+]([O-])c1cccc(O)c1[n+]2O [Example 5a, reference compound]	3200

[ask] Item under review: COc1cccc2c1[n+]([O-])c1cccc(OC(C)=O)c1[n+]2[O-] . Reported IC50?
[reply] 1700

====

Test system: IPC-81 rat AML cells
Assay: Anti-AML activity, WST-1 viability (Example 72)
Format: cell-based
Details: IPC81, 24 h, read-out: IPC-81 IC50 20% O2
Quantity: IC50 (nM)
Numbers only, in nM.

[ask] Fill in: IC50 of [O-][n+]1c2cccc(O)c2[n+]([O-])c2cccc(O)c21 [Example 1c, 1,6-dihydroxyphenazine 5,10-dioxide, reference compound] is ___
[reply] 1300

====

Test system: human acute myeloid leukemia cell line MOLM-13
Assay: Cytotoxicity, WST-1 and nuclear morphology (Example 73)
Type: cell-based
Settings: Homo sapiens; MOLM-13, 19% O2, 24 hours of incubation; read-out: EC50 (μM) MOLM-13 19% O2
Rule: EC50 below 8 µM gives True, anything at or above gives False.

Use the examples below as a reference point.
Nc1ccc2c(c1)[n+](O)c1ccccc1[n+]2[O-] [Example 67, 2-aminophenazine 5,10-dioxide]	False
CCN(CC)C(=O)COc1cccc2c1[n+]([O-])c1ccccc1[n+]2[O-]	True
Cc1cc2c(cc1C)[n+]([O-])c1cc(O)ccc1[n+]2[O-]	False
O=C(O)COc1cccc2c1[n+]([O-])c1cccc(OCC(=O)O)c1[n+]2[O-]	False
CCOC(=O)COc1cccc2c1[n+]([O-])c1cc(Cl)c(Cl)cc1[n+]2[O-]	True

[ask] Does CCCCC(=O)Oc1cccc2c1[n+]([O-])c1cccc(OC(=O)CCCC)c1[n+]2[O-] [Example 16b] have EC50 strictly under 8 µM?
[reply] False

[ask] Consider the compound COc1cccc2c1[n+]([O-])c1cccc(O)c1[n+]2O [Example 5a, reference compound] . Is its EC50 strictly less than 8 µM?
[reply] True

[ask] In the record for CCOC(=O)COc1cccc2c1[n+]([O-])c1cc(C)c(C)cc1[n+]2[O-] , is EC50 less than 8 µM?
[reply] False

====

Record form. Attribute: LogPeff. Fill in for each entry.
Test: Parallel artificial membrane permeability assay (PAMPA)
Conditions: PAMPA, 50 μM in PBS, room temperature, five hours
Numbers only.

Oc1cccc2nc3c(O)cccc3nc12 [Example 1b, 1,6-dihydroxyphenazine]	−5.42
[O-][n+]1c2cc3ccccc3cc2[n+]([O-])c2c(O)cccc21 [Example 70, 1-hydroxybenzo[b]phenazine 5,12-dioxide]	−8.04
CCOC(=O)COc1cccc2c1[n+]([O-])c1cccc(O)c1[n+]2[O-]	−4.70
CCCCC(=O)Oc1cccc2c1[n+]([O-])c1cccc(OC(=O)CCCC)c1[n+]2[O-] [Example 16b]	−8.66
CCOC(=O)COc1cccc2c1[n+]([O-])c1cc(Cl)c(Cl)cc1[n+]2[O-]	−5.42

State the recorded LogPeff for every item in the following list.
1. CCN(CC)C(=O)COc1cccc2c1[n+]([O-])c1cc(C)c(C)cc1[n+]2[O-]
2. CN1CCN(C(=O)Oc2cccc3c2[n+]([O-])c2cc4ccccc4cc2[n+]3[O-])CC1 [Example 8e]
3. CC(C)(C)OC(=O)COc1cccc2c1[n+]([O-])c1cccc(O)c1[n+]2[O-]
4. Cc1cc2c(cc1C)[n+]([O-])c1c(OC(=O)N3CCCC3)cccc1[n+]2[O-]
5. COc1cccc2c1[n+]([O-])c1cccc(OC(=O)N3CCN(C)CC3)c1[n+]2[O-]
6. O=C(O)COc1cccc2c1[n+]([O-])c1cccc(O)c1[n+]2[O-]

[reply]
−5.42
−5.38
−5.33
−5.32
−5.77
−7.53

Field: LogPeff. Fill in for each record below.
1. COc1cccc2c1[n+]([O-])c1cccc(O)c1[n+]2O [Example 5a, reference compound]
2. CN1CCN(C(=O)Oc2cccc3c2[n+]([O-])c2cc4ccccc4cc2[n+]3[O-])CC1 [Example 71]

[reply]
["−5.29", "−5.43"]
